We begin with a simple list: items and their reported inhibition at 0.1 wt %.
- system_tested: β-glucuronidase Type VII-A derived from Escherichia coli (Escherichia coli, UniProt P05804)
- Construct: purchased Sigma-Aldrich Corporation
- Sequence (P05804 whole entry): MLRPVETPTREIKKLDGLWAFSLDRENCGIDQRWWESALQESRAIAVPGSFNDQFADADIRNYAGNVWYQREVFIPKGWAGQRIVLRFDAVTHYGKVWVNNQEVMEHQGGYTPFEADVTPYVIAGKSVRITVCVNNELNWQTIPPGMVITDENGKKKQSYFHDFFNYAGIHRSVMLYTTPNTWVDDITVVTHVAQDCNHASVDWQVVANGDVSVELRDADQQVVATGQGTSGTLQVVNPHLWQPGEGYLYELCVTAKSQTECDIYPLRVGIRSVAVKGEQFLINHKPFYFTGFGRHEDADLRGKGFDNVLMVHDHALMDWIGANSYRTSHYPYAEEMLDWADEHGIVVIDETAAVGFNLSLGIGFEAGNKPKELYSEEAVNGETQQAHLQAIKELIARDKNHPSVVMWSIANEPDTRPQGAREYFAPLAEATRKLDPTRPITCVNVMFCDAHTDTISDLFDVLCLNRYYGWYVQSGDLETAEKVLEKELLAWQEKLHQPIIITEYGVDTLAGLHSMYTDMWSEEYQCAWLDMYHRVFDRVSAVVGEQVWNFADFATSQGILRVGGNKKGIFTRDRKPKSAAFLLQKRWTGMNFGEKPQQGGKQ
- experiment: Inhibition of β-glucuronidase activity (PNPG substrate, absorbance at 400 nm)
- Type: biochemical
- recorded_conditions: 0.1 wt % in reaction solution; 1.6 units/mL enzyme; 37° C., 2 hours; pH 6.8; read-out: Inhibition rate (%) Concentration 0.1%
Numbers only here, please. The scale is %.

Ask: Could you share which inhibition at 0.1 wt % value was measured for "O=C1CCCCCCC=CCCCCCCC1" ?
Reply: 100

###

- system_tested: β-glucuronidase Type VII-A derived from Escherichia coli (Escherichia coli)
- Construct: purchased Sigma-Aldrich Corporation
- experiment: Inhibition of β-glucuronidase activity (PNPG substrate, absorbance at 400 nm)
- Assay type: biochemical
- recorded_conditions: 0.1 wt % in reaction solution; 1.6 units/mL enzyme; 37° C., 2 hours; pH 6.8
Measured Inhibition rate (%) Concentration 0.1%, listed per entry for reference.
Note: a bare number is incomplete; add the unit.

compound=CCCCCC1=CCCC1=O system_tested="β-glucuronidase Type VII-A derived from Escherichia coli (Escherichia coli)" obs_value=97.8%

Ask: Can you share its Inhibition rate (%) Concentration 0.1%? I mean this compound: C/C=C\C(=O)C1C(C)=CCCC1(C)C (stereo not shown)
Reply: 89.9%

Ask: What about CC1=CC(C)C(C=O)CC1 (stereo not shown) [Ligustral, dimethyltetrahydrobenzaldehyde] ?
Reply: 76.2%

Ask: Also CC(C=O)Cc1ccc(C(C)C)cc1 (stereo not shown) ?
Reply: 87.5%

Ask: Lookup CC(C)=CCCC(C)CC#N (stereo not shown)
Reply: 92.4%

Ask: Then this compound: CC(C)=CCCC1=CCC(C=O)CC1 (stereo not shown)
Reply: 63.7%

###

- system_tested: β-glucuronidase Type VII-A derived from Escherichia coli (Escherichia coli)
- Construct: purchased Sigma-Aldrich Corporation
- experiment: Inhibition of β-glucuronidase activity (PNPG substrate, absorbance at 400 nm)
- Type: biochemical
- recorded_conditions: 0.01 wt % in reaction solution; 1.6 units/mL enzyme; 37° C., 2 hours; pH 6.8; read-out: Inhibition rate (%) Concentration 0.01%
measure_name: inhibition at 0.01 wt % (%)
Provide the reading as a plain figure in %.

compound="COC1(C)CCCCCCCCCCC1 [Madrox, 1-methyl-1-methoxycyclododecane]" obs_value=60.9
compound="COc1cc(C=O)ccc1O [Vanillin, vanillin]" obs_value=49.5
compound="CC(C)CCOCCc1ccccc1 [Phenylethyl isoamyl ether, phenylethyl isoamyl ether]" obs_value=60.8

Next item in the queue.
Ask: Requested field: inhibition at 0.01 wt %. Item: CC(=O)OCC=Cc1ccccc1 [Cinnamyl acetate, cinnamyl acetate]
Reply: 51.3

###

# Inhibition rate (%) Concentration 0.01% per record follows
- system_tested: β-glucuronidase Type VII-A derived from Escherichia coli (Escherichia coli, UniProt P05804)
- Construct: purchased Sigma-Aldrich Corporation
- experiment: Inhibition of β-glucuronidase activity (PNPG substrate, absorbance at 400 nm)
- Type: biochemical
- recorded_conditions: 0.01 wt % in reaction solution; 1.6 units/mL enzyme; 37° C., 2 hours; pH 6.8
Be sure to follow the number with its unit.

Examples with their reported Inhibition rate (%) Concentration 0.01% follow.
compound="CCC12CCC3C(C)(C)CCCC3(C)C1CCO2 (stereo not drawn) [Grisalva]" obs_value=50.4%
compound="CC(C)=CCCC1=CCC(C=O)CC1 (stereo not drawn) [Myrac aldehyde]" obs_value=49.7%

Ask: Look at this compound and give its reported Inhibition rate (%) Concentration 0.01%. CC1=CC[C@H](C(C)C)C=C1 (racemic) [α-Phellandrene, α-phellandrene]
Reply: 50.0%
